Assay: Phase 1 study of a single oral dose of voxelotor in subjects with hepatic impairment: whole blood and plasma PK
Format: in vivo, human
Details: human, plasma, oral, 1500 mg, plasma; normal hepatic function (Reference); 1500 mg; read-out: AUCt, Geometric LS Mean
Protocol: A Phase 1, open-label study was performed to characterize pharmacokinetics (PK) and safety of a single oral dose of voxelotor in subjects with hepatic impairment. […] Adverse events and concomitant medication use were monitored throughout the study. […] Whole blood and plasma concentrations of voxelotor were determined using validated assays. […] The following PK parameters were determined. […] The lower limit of assay quantitation for voxelotor was 10.0 ng/mL for whole blood and 5.00 ng/mL in plasma.
property_name: AUC(0-t) (µg·h/mL)
One number for each entry, in µg·h/mL.

Query block: Request the reported AUC(0-t) associated with CC(C)n1nccc1-c1ncccc1COc1cccc(O)c1C=O
Result block: 203
